tested on: SW-620 colon; assay: NCI tumour cell line growth inhibition, 48 h
reported-metric: TGI

These solved cases illustrate the format of a correct answer.
| molecule | TGI |
| --- | --- |
| O=C1C=CC2(O[C@H](c3ccccc3)[C@@H](c3ccccc3)O2)[C@H](Sc2ccccc2O)C1 | > 100 µM |
| NNC(=O)C(=O)N/N=C1/CCCC1C(=O)CCC(=O)Nc1ccc(Cl)cc1 (centres undefined) | > 100 µM |
| COC(=O)C1C(C(=O)OC)C2C(=O)C3C(C(=O)OC)C(C(=O)OC)C3C(=O)C12 (centres undefined) | > 100 µM |

Inquiry: Request body: readout TGI, system SW-620 colon, query N#CC(C(=O)C(=O)Nc1c(Cl)cccc1Cl)c1ccccc1 (centres undefined) . Return the value.
Reply text: > 100 µM

Inquiry: State its TGI on SW-620 colon: CN(C)c1ccc(/C=C(\NC(=O)c2ccccc2)C(=O)NC(CC(=O)O)C(=O)O)cc1 (centres undefined)
Reply text: > 100 µM

Inquiry: Find TGI (SW-620 colon) for the entry CC(C)(CO)CNC(=O)c1ccc2[nH]c(O)c(N=Nc3ccc(S(N)(=O)=O)cc3)c2c1
Reply text: > 25 µM
